IC50: recorded values
Tgt: SARM1 (ARM-SAM-TIR, full length SARM1) (Homo sapiens, UniProt Q6SZW1)
Sequence (Q6SZW1 with tags, fused parts or gaps): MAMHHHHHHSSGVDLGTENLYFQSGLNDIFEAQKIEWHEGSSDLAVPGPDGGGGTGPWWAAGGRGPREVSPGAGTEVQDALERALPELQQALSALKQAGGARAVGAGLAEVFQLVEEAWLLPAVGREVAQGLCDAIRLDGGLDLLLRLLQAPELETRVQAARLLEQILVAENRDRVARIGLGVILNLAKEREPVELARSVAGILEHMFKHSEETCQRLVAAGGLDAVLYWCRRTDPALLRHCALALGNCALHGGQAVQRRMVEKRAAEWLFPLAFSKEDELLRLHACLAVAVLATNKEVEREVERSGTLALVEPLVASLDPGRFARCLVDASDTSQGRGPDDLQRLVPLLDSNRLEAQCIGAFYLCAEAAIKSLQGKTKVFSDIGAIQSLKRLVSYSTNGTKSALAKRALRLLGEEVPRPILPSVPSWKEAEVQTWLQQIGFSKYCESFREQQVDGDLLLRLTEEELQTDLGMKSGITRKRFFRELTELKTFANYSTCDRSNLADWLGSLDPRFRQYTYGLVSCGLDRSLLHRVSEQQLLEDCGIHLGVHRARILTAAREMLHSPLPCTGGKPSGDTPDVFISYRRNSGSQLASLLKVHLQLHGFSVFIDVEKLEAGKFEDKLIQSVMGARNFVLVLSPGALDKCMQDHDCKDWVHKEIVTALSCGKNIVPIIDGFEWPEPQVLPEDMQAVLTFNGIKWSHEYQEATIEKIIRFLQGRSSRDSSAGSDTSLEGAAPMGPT
Protocol: biochemical
Assay Conditions: SARM1 IC50 (nM), ARM-SAM-TIR lysate 5 μg/mL from NRK1-HEK293T cells, 2 h pre-incubation, 5 uM NAD+, 2 hr room temperature
Endpoint Label: IC50

Molecule	Tgt	Result
O=C1C(Cc2ccc(Cl)c(F)c2)CCN1c1nnc(-c2ccncc2)[nH]1 (stereo not drawn) [Compound I-8]	SARM1 (ARM-SAM-TIR, full length SARM1) (Homo sapiens, UniProt Q6SZW1)	< 50 nM
O=C1C(Cc2ccc(F)nc2)CCCN1c1[nH]nc(-c2ccncc2)c1Cl (stereo not drawn)	SARM1 (ARM-SAM-TIR, full length SARM1) (Homo sapiens, UniProt Q6SZW1)	> 1000 nM
O=C1C(Cc2ccc(Cl)cc2)CCN1c1nnc(-c2ccncc2)[nH]1 (single isomer, unassigned) [I-4* (peak 1)]	SARM1 (ARM-SAM-TIR, full length SARM1) (Homo sapiens, UniProt Q6SZW1)	< 50 nM

====

Tgt: SARM1 (ARM-SAM-TIR, full length SARM1) (Homo sapiens, UniProt Q6SZW1)
Protocol: biochemical
Assay Conditions: SARM1 IC50 (nM), ARM-SAM-TIR lysate 5 μg/mL from NRK1-HEK293T cells, 2 h pre-incubation, 5 uM NAD+, 2 hr room temperature

Compound	IC50
O=C1C(Cc2ccc(C(F)(F)F)nc2)CCN1c1cc(-c2ccncc2)n[nH]1 (stereo not shown)	101 to 500 nM
O=C1C(Cc2ccc(Cl)nc2)CCCN1c1cc(-c2ccncc2)n[nH]1 (single isomer, unassigned) [I-21* (peak 2)]	< 50 nM
O=C1C(Cc2cnc(Cl)c(F)c2)CCCN1c1cc(-c2ccncc2)n[nH]1 (stereo not shown) [Compound I-66]	< 50 nM
O=C1C(Cc2cnc(Cl)c(F)c2)CCN1c1cc(-c2ccncc2)n[nH]1 (single isomer, unassigned) [I-65* (peak 1)]	< 50 nM
